Overview of reported IC50 across a group of compounds:
# System: HUVEC
# method description: Antimigratory activity in HUVEC assessed as inhibition of cell migration measured after 16 to 20 hrs by crystal violet staining-based microscopic analysis
# Format: functional
# test settings: Homo sapiens
Report the figure in µM without appending any unit label.

• COCC1Oc2ccc(-c3oc4cc(O)cc(O)c4c(=O)c3O)cc2OC1c1ccc(O)c(OC)c1 (centres undefined) = 10.5
• COc1cc(O)c2c(=O)c(OC)c(-c3ccc4c(c3)OC(c3ccc(O)c(OC)c3)C(CO)O4)oc2c1 (centres undefined) = 49.9
• COc1cc(C2Oc3cc(-c4oc5cc(O)cc(O)c5c(=O)c4OC(=O)c4cc(O)c(O)c(O)c4)ccc3OC2CO)ccc1O (centres undefined) = 36.8

Ask: GET /values?readout=IC50&system=HUVEC&item= COc1cc(O)c2c(=O)c(O)c(-c3ccc4c(c3)OC(c3ccc(O)c(OC)c3)C(CO)O4)oc2c1 (centres undefined)
Reply: 10.4

###

# System: HUVEC
# method description: Antimigratory activity in HUVEC assessed as inhibition of cell migration measured after 16 to 20 hrs by crystal violet staining-based microscopic analysis
# Assay type: functional
# test settings: Homo sapiens
Overview of reported pIC50 across a group of compounds:
# log scale: pIC50 equals minus log10 of the concentration in mol/L

Example compounds with recorded pIC50:
• COc1cc(C2Oc3cc(-c4oc5cc(O)cc(O)c5c(=O)c4O)ccc3OC2CO)ccc1O (centres undefined) [DEHYDROSILYLBIN] = 4.91
• COc1cc(C2Oc3cc(-c4oc5cc(O)cc(OC)c5c(=O)c4O)ccc3OC2CO)ccc1O (centres undefined) = 4.95
• COc1cc(C2Oc3cc(-c4oc5cc(OC(=O)c6cc(O)c(O)c(O)c6)cc(O)c5c(=O)c4O)ccc3OC2CO)ccc1O (centres undefined) = 5.33

Query compound follows.
Ask: Quick check: pIC50 of COc1cc(C2Oc3cc(-c4oc5cc(O)cc(O)c5c(=O)c4OC)ccc3OC2CO)ccc1O (centres undefined) ?
Reply: 4.95
